Tested on: Cryptococcus neoformans
Settings: Concentration 32 ug.mL-1; ASSAY_TEST Inhibition of Fungal Growth; detection method Resazurin; Absorption (OD600-OD570); plate type 384well; NBS; CORNING #3640
Description: Antifungal activity against Cryptococcus neoformans H99 ATCC 208821 (CO-ADD:FG_002); MIC in YNB media using NBS plates, by Resazurin OD(600-570)
Measured potencies and affinities stand elsewhere.
experimental.readout: Inhibition (%)

>>> print(df.to_string())
                            chemical_smiles              test_system  test_result
0  Cc1ccc(NC(=O)Cn2nc3ccc(SC(C)C)nn3c2=O)cc1F  Cryptococcus neoformans        -6.87
1  Cc1ccc(NC(=O)CSc2nnc3ccc(C(=O)Nc4cccc(F)c4)cn23)cc1F  Cryptococcus neoformans         -4.6
2  Cc1ccc(Cl)cc1NC(=O)CSc1nnc2ccc(C(=O)Nc3cccc(F)c3)cn12  Cryptococcus neoformans        -1.38
3  COc1ccccc1NC(=O)Cn1nc2c3cc(-c4ccc(C)c(C)c4)nn3ccn2c1=O  Cryptococcus neoformans       -22.56
4  CCCCOc1ccc(-c2cc3c4nnc(SCC(=O)Nc5cc(C)ccc5C)n4ccn3n2)cc1  Cryptococcus neoformans       -10.24

====

Test system: Klebsiella pneumoniae
Details: Concentration 32 ug.mL-1;; ASSAY_TEST Inhibition of Bacterial Growth; detection method Absorption (OD600); MEDIA CAMHB; plate type 384well; NBS; CORNING #3640; time 18 hr
Description: Antibacterial activity against Klebsiella pneumoniae MDR ATCC 70063 (CO-ADD:GN_003); MIC in CAMBH media using NBS plates, by OD(600)
Measured potencies and affinities stand elsewhere.
Entries annotated with measured Inhibition
experimental.readout: Inhibition (%)

>>> print(df.to_string())
                            chemical_smiles  experimental_readout  test_result
0  COc1ccc(C(=O)CSc2nnc3c(=O)n(-c4ccc(F)c(F)c4)ccn23)cc1OC            Inhibition        11.04
1  CCCCc1ccc(NC(=O)CSc2nc3ccccc3n3c(C(C)C)nnc23)cc1            Inhibition         2.68
2  O=C(Cn1nc2c(Sc3ccccc3)nccn2c1=O)Nc1ccc2c(c1)OCO2            Inhibition         1.19
3  CCc1nnc2c(SCC(=O)Nc3ccc(Cl)cc3)nc3ccccc3n12            Inhibition          3.4
4  Cc1ccc(NC(=O)Cn2nc3ccc(SC4CCCCC4)nn3c2=O)cc1C            Inhibition        -2.51

====

Entries annotated with measured Inhibition
Test system: Cryptococcus neoformans
Settings: Concentration 32 ug.mL-1; ASSAY_TEST Inhibition of Fungal Growth; detection method Resazurin; Absorption (OD600-OD570); plate type 384well; NBS; CORNING #3640
Potency and affinity values are given separately.
experimental.readout: Inhibition (%)

>>> print(df.to_string())
                                   compound  uom  test_result
0  COc1ccc(NC(=O)Cn2nc3ccc(-c4ccccc4)nn3c2=O)cc1OC    %         0.88
1  COc1ccc(-c2cc3c4nn(CC(=O)Nc5cccc(C(C)=O)c5)c(=O)n4ccn3n2)cc1    %       -13.63
2  Cc1ccc(NC(=O)c2ccc3nnc(SCC(=O)Nc4ccc(Br)cc4)n3c2)cc1    %       -17.05
3  CCc1nnc2c(=O)n(CC(=O)Nc3ccc(C#N)cc3)c3ccccc3n12    %       -24.76
4  COc1cccc(Oc2nccn3c(=O)n(CC(=O)Nc4ccc5c(c4)OCCO5)nc23)c1    %        -9.22
5   COc1ccccc1-n1ccn2c(SCc3ccccc3C)nnc2c1=O    %       -12.54
6  CCC(Sc1nnc2c(=O)n(-c3cccc(OC)c3)ccn12)C(=O)Nc1cc(OC)cc(OC)c1 (stereo not given)    %       -13.16
7  CCc1ccccc1Sc1nccn2c(=O)n(CC(=O)Nc3ccc(OC)cc3)nc12    %       -13.58
8  COc1ccc(NC(=O)Cn2nc3c4cc(-c5ccc(C)cc5)nn4ccn3c2=O)cc1    %       -12.53
9  N#CCn1nc2n(Cc3ccccc3)c(=O)c3ccc(C(=O)NC4CCCCC4)cc3n2c1=O    %       -13.83

====

Entries annotated with measured Inhibition
System: Klebsiella pneumoniae
Conditions: Concentration 32 ug.mL-1;; ASSAY_TEST Inhibition of Bacterial Growth; detection method Absorption (OD600); MEDIA CAMHB; plate type 384well; NBS; CORNING #3640; time 18 hr
Measured potencies and affinities stand elsewhere.
experimental.readout: Inhibition (%)

In [3]: df
Out[3]:
                                    molecule            test_system  test_result
 0  Cc1cccc(Oc2nccn3c(=O)n(CC(=O)Nc4ccccc4C(F)(F)F)nc23)c1C  Klebsiella pneumoniae        10.49
 1  CCc1nnc2c(SCC(=O)Nc3cccc(C(C)=O)c3)nc3ccccc3n12  Klebsiella pneumoniae        17.43
 2  Cc1ccc(CNC(=O)Cn2nc3c(Sc4ccc(C)cc4C)nccn3c2=O)cc1  Klebsiella pneumoniae         3.93
 3  Cc1nnc2c(S(=O)(=O)N(Cc3ccc(F)cc3)c3ccc(Cl)cc3)cccn12  Klebsiella pneumoniae         5.76
 4  CCc1ccccc1Sc1nccn2c(=O)n(CC(=O)Nc3ccc(OC)c(Cl)c3)nc12  Klebsiella pneumoniae         5.33
 5  COc1cc(NC(=O)C(C)Sc2nnc3c(=O)n(-c4ccccc4OC)ccn23)cc(OC)c1 (stereo not given)  Klebsiella pneumoniae        11.13
 6  Cc1ccc(CNC(=O)Cn2nc3ccc(SC4CCCCC4)nn3c2=O)cc1  Klebsiella pneumoniae        11.36
 7  COc1ccc(NC(=O)Cn2nc3ccc(SC4CCCCC4)nn3c2=O)cc1OC  Klebsiella pneumoniae         8.74
 8  Cc1ccc(CNC(=O)c2ccc3nn(CC(=O)Nc4ccc(C(F)(F)F)cc4)c(=O)n3c2)cc1  Klebsiella pneumoniae         8.75
 9  COc1cccc(-n2ccn3c(SCc4ccc(Cl)cc4)nnc3c2=O)c1  Klebsiella pneumoniae         9.45
10  CCc1ccc(NC(=O)Cn2nc3n(Cc4cccs4)c(=O)c4sccc4n3c2=O)cc1  Klebsiella pneumoniae          9.1
11  Cc1cccc(C)c1NC(=O)Cn1nc2ccc(SCc3ccc(Cl)cc3)nn2c1=O  Klebsiella pneumoniae        -2.95
12  CC(C)c1nnc2c(=O)n(CC(=O)Nc3ccc(F)cc3)c3ccccc3n12  Klebsiella pneumoniae        21.13
13  COc1ccc(-c2cc3c4nnc(CCC(=O)NCc5ccc(OC)c(OC)c5)n4ccn3n2)cc1  Klebsiella pneumoniae        12.53
14  Cc1ccc(NC(=O)Cn2nc3cc(C)nc(Nc4ccc(F)c(C)c4)n3c2=O)cc1  Klebsiella pneumoniae        11.85
15  COc1cc(OC)c(NC(=O)Cn2nc3c(Oc4ccc(C)cc4)nccn3c2=O)cc1Cl  Klebsiella pneumoniae            2
16  O=C(Cn1nc2ccc(SCc3ccc(Cl)cc3)nn2c1=O)NCc1ccc2c(c1)OCO2  Klebsiella pneumoniae        -1.27
17  O=c1n(Cc2ccc3c(c2)OCO3)nc2ccc(-c3ccccc3)nn12  Klebsiella pneumoniae        13.28
18  CCCc1nnc2c(=O)n(CC(=O)Nc3cccc(C#N)c3)c3ccccc3n12  Klebsiella pneumoniae         0.67
19  COc1ccc(Cl)cc1NC(=O)CSc1nnc2c(=O)n(-c3ccc(C)c(C)c3)ccn12  Klebsiella pneumoniae         15.8

====

System: Klebsiella pneumoniae
Details: Concentration 32 ug.mL-1;; ASSAY_TEST Inhibition of Bacterial Growth; detection method Absorption (OD600); MEDIA CAMHB; plate type 384well; NBS; CORNING #3640; time 18 hr
Potency and affinity values are given separately.
Entries annotated with measured Inhibition
experimental.readout: Inhibition (%)

>>> print(df.to_string())
                                    compound  experimental_readout  uom  test_result
 0  COc1ccc(N(Cc2ccc(F)cc2)S(=O)(=O)c2ccc3nncn3c2)cc1            Inhibition    %        12.52
 1  CCCCOc1ccc(-c2cc3c4nnc(SCC(=O)N(CC)c5ccccc5)n4ccn3n2)cc1            Inhibition    %         16.4
 2  Cc1ccc(Oc2nccn3c(=O)n(CC(=O)N4CCN(c5ccc(F)cc5)CC4)nc23)cc1            Inhibition    %        19.83
 3  O=S(=O)(c1ccc2nncn2c1)N(Cc1cc(F)cc(F)c1)c1ccccc1            Inhibition    %        -3.49
 4  COc1ccc(NC(=O)Cn2nc3c(Sc4ccccc4)nccn3c2=O)c(OC)c1            Inhibition    %         2.54
 5  CCc1nnc2c(SCC(=O)Nc3ccc(C)cc3Cl)nc3ccccc3n12            Inhibition    %        11.28
 6  CCOC(=O)C1CCCN(C(=O)Cn2nc3n(CC(C)C)c(=O)c4sccc4n3c2=O)C1 (stereo unspecified)            Inhibition    %         8.18
 7  Cc1c(Cl)cccc1-n1ccn2c(=O)n(Cc3ccc(Cl)cc3)nc2c1=O            Inhibition    %         2.87
 8  Cc1ccc(-c2noc(Cn3nc4ccc(-c5ccccc5)nn4c3=O)n2)cc1            Inhibition    %         1.24
 9  COc1ccc(NC(=O)Cn2nc3c(N4CCCC4)nccn3c2=O)cc1            Inhibition    %         6.93
10  Cc1ccc(-c2ccc3nn(Cc4cccc(Br)c4)c(=O)n3n2)cc1C            Inhibition    %        14.87
11  Cc1cc2nn(CC(=O)N3CCCC3)c(=O)n2c(Nc2ccc(C)c(F)c2)n1            Inhibition    %         9.72
12  O=C(CSc1nnc2c(=O)n(-c3cccc(F)c3)ccn12)N1CCN(c2ccc(F)cc2)CC1            Inhibition    %        10.19
13  Cc1cccc(NC(=O)Cn2nc3ccc(SC(C)(C)C)nn3c2=O)c1            Inhibition    %          5.1
14   COc1ccccc1-n1ccn2c(SCc3ccccc3F)nnc2c1=O            Inhibition    %         11.1
15  O=C(Cn1nc2c(SC3CCCCC3)nccn2c1=O)N1CCN(c2ccccc2)CC1            Inhibition    %         7.42
16  COc1ccc(-c2cc3c4nn(CC(=O)Nc5ccc(F)cc5)c(=O)n4ccn3n2)cc1            Inhibition    %         1.02
17  O=C(CSc1nnc2c(=O)n(-c3ccccc3)ccn12)c1c[nH]c2ccccc12            Inhibition    %         19.5
18  COc1ccc(N2CCN(C(=O)Cn3nc4ccc(-c5ccccc5)nn4c3=O)CC2)cc1            Inhibition    %         3.53
19  CSc1cccc(NC(=O)Cn2nc3c(Oc4ccccc4C)nccn3c2=O)c1            Inhibition    %         7.38
20  O=C(Cn1nc2ccc(SCc3ccc(Cl)cc3)nn2c1=O)NC1CCCCC1            Inhibition    %         3.63
